- System: KO-52 cells
- experiment: Proliferation assay (spheroid confluence, 8 days), KO-52 control cell line
- Assay type: cell-based, human
- experimental parameters: Homo sapiens, read-out: spheroid assay_KO-52 IC50

- compound: "CC(=O)N1C[C@@H]2CN(CCC[C@H](C(C)C)N3CC[C@H](Cc4cn(-c5ccc(F)cc5C(=O)N(C)C(C)C)c5cncc(Cl)c45)C3)C[C@H]2C1 (single isomer, unassigned) [Compound 19a]"
  operator symbol: ">"
  IC50 / µM: 15
- compound: "CC(=O)N1CCN([C@H]2C[C@@H]([C@@H](C(C)C)N3CC(Cc4cn(-c5ccc(F)cc5C(=O)N(C)C(C)C)c5cncc(C)c45)C3)C2)CC1 (single isomer, unassigned) [Compound 32a]"
  operator symbol: "="
  IC50 / µM: 5.5
- compound: "Cc1cncc2c1c(C[C@@H]1CCN(CC3CCNC(=O)CC3)C1)cn2-c1ccc(F)cc1C(=O)N1CCC[C@H]1C (single isomer, unassigned) [Compound 353a]"
  operator symbol: ">"
  IC50 / µM: 15
- compound: "Cc1cncc2c1c(C[C@@H]1CCN(CC3CCNC(=O)C3)C1)cn2-c1ccc(F)cc1C(=O)N(C)C(C)C (mixture of isomers)"
  operator symbol: ">"
  IC50 / µM: 15
- compound: "Cc1cncc2c1c(CC1CCN(CC3CCN(C(=O)[C@@H](C)O)CC3)C1)cn2-c1ccc(F)cc1C(=O)N(C)C(C)C (single isomer, unassigned)"
  operator symbol: "="
  IC50 / µM: 2.2
- compound: "Cc1cncc2c1c(CC1CN(CC3CCN(C(=O)CC#N)CC3)C1)cn2-c1ccc(F)cc1C(=O)N(C)C(C)C"
  operator symbol: "="
  IC50 / µM: 12

====

- system name: menin/MLL (terbium chelate-labeled menin, FITC-MBM1 peptide) (Homo sapiens, UniProt O00255, T541A)
- Construct: Menin (a.a 1-610-6xhis tag, 2.3 mg/mL in 20 mM Hepes)
- experiment: Menin/MLL homogenous time-resolved fluorescence (HTRF) assay
- experimental parameters: 30 min incubation
pIC50: −log10 of the molar value.
Reported pIC50 values are given for each entry in this list.

- compound: "Cc1cncc2c1c(CC1CCN(CC3CCC(=O)N(C)CC3)C1)cn2-c1ccc(F)cc1C(=O)N(C)C(C)C (single isomer, unassigned) [Compound 184a]"
  pIC50: 10.39
- compound: "CC(=O)N1C[C@@H]2CN([C@H]3C[C@@H](C(C(C)C)N4CC[C@H](Cc5cn(-c6ccc(F)cc6C(=O)N(C)C(C)C)c6cncc(C)c56)C4)C3)C[C@H]2C1 (mixture of isomers) [Compound 21]"
  pIC50: 10.28
- compound: "Cc1cncc2c1c(CC1CCN(CC3CCN(C(=O)N4CCOCC4)CC3)CC1)cn2-c1ccc(F)cc1C(=O)N(C)C(C)C [Compound 204]"
  pIC50: 10.04
- compound: "Cc1cncc2c1c(CC1CNC(CC3CCOCC3)C1)cn2-c1ccc(F)cc1C(=O)N(C)C(C)C (single isomer, unassigned) [Compound 134c]"
  pIC50: 10.14
- compound: "Cc1cncc2c1c(CC1CCN(CC3CCN(C(=O)CO)CC3)C1)cn2-c1ccc(F)cc1C(=O)N(C)C(C)C (single isomer, unassigned) [Compound 87]"
  pIC50: 10.38
- compound: "CCC(CCCN1C[C@H]2CN(C(C)=O)C[C@@H]2C1)N1CC[C@@H](Cc2cn(-c3ccc(F)cc3C(=O)N(C)C(C)C)c3cncc(C)c23)C1 (mixture of isomers) [Compound 16]"
  pIC50: 10.29
- compound: "CC(=O)N1CCC(CN2CC[C@@H](Cc3cn(-c4ccc(F)cc4C(=O)N4C[C@@H](O)C[C@H]4C)c4cncc(C)c34)C2)CC1 [Compound 327]"
  pIC50: 9.09
- compound: "CCN(C(=O)c1cc(F)ccc1-n1cc(C[C@@H]2CCN(CC3CCN(C(C)=O)CC3)C2)c2c(C)cncc21)C(C)C [Compound 255]"
  pIC50: 9.99

====

- system name: menin/MLL (terbium chelate-labeled menin, FITC-MBM1 peptide) (Homo sapiens, UniProt O00255, T541A)
- Construct: Menin (a.a 1-610-6xhis tag, 2.3 mg/mL in 20 mM Hepes)
- Sequence (O00255 with tags, fused parts or gaps T541A): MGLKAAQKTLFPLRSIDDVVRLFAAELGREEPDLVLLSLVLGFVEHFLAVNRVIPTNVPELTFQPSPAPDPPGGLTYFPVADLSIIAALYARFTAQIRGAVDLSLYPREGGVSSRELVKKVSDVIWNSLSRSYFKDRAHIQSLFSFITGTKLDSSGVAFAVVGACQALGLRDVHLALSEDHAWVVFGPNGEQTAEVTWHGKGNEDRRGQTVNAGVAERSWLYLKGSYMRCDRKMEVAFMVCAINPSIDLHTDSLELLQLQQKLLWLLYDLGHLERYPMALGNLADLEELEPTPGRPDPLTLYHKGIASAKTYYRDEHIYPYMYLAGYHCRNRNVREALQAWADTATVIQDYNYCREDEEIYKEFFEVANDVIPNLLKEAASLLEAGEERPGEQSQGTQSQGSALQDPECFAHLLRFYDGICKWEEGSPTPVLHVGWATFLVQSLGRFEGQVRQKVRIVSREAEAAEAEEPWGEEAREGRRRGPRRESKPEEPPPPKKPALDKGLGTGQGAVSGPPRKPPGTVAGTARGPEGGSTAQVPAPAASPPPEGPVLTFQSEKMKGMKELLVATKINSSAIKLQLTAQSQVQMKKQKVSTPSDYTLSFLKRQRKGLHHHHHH
- experiment: Menin/MLL homogenous time-resolved fluorescence (HTRF) assay
- Type: binding
- experimental parameters: 30 min incubation

- compound: "CC(=O)N1C[C@@H]2CN([C@H]3C[C@@H](CN4CC[C@@H](Cc5cn(-c6ccc(F)cc6C(=O)N(C)C(C)C)c6cncc(C)c56)C4)C3)C[C@H]2C1 (single isomer, unassigned) [Compound 30]"
  IC50: "~0.49 nM"
- compound: "Cc1cncc2c1c(CC1CN(CC3CCN(C(=O)CC#N)CC3)C1)cn2-c1ccc(F)cc1C(=O)N(C)C(C)C [Compound 67]"
  IC50: "~0.043 nM"
- compound: "CC(=O)N1CCC(N2CC[C@@H](Cc3cn(-c4ccc(F)cc4C(=O)N(C)C(C)C)c4cncc(C)c34)C2)C(C)(C)C1 (mixture of isomers) [Compound 234]"
  IC50: "~0.068 nM"
